B1: LYSMD4 (parent)
chain: LLQRELAQEDSLNKLALQYGCKVA

# Variants of: B1
# protocol-notes: protein stability index of a GFP-peptide fusion (GPS, HEK-293T) (PSI 1-6); higher = more stable;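 note: lentivirally expressed fusions sorted by FACS into six bins by GFP to DsRed ratio, PSI derived from sequencing read proportions per bin multiplied by bin number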
# measurement-conditions: c terminus: a fixed tail appended
Class yes (1): protein stability index at least 3. Class no (0): protein stability index below 3.

Observe how each entry below is paired with its result.
variant-name: E9I
category: no (0)
--
variant-name: E5P
category: no (0)
--
variant-name: K22E
category: yes (1)
--
variant-name: N13P
category: no (0)
--
variant-name: L17F
category: yes (1)

[Q] Check the entry L1P : does protein stability index equal or exceed 3?
[A] no (0)

[Q] Then this variant: Y19C
[A] no (0)

[Q] Then this variant: L2W
[A] no (0)

[Q] Then this variant: L6Y
[A] no (0)

[Q] Then this variant: R4V
[A] yes (1)

[Q] Then this variant: E5T
[A] no (0)

[Q] Then this variant: Q8E
[A] no (0)

[Q] Then this variant: L15H
[A] no (0)

[Q] Then this variant: Y19M
[A] no (0)

[Q] Then this variant: G20Q
[A] yes (1)

[Q] Then this variant: L17T
[A] no (0)

[Q] Then this variant: A24P
[A] no (0)

[Q] Then this variant: L12V
[A] no (0)

[Q] Then this variant: V23P
[A] yes (1)

[Q] Then this variant: V23A
[A] yes (1)

[Q] Then this variant: E9G
[A] no (0)

[Q] Then this variant: L1E
[A] no (0)

[Q] Then this variant: L6K
[A] no (0)

[Q] Then this variant: A24K
[A] no (0)

[Q] Then this variant: L12N
[A] yes (1)

[Q] Then this variant: E9P
[A] no (0)

[Q] Then this variant: C21V
[A] no (0)
